Exercise: state measured Human T-cell Binding 0.2 uM (MFI) for each of the binders provided.
Tested on: T1, human CD8 alpha (CD8A) on primary human CD8+ T cells (human, UniProt P01732 22-235)
T1 construct: whole, on cells; also called hCD8A
T1 sequence (P01732 22-235): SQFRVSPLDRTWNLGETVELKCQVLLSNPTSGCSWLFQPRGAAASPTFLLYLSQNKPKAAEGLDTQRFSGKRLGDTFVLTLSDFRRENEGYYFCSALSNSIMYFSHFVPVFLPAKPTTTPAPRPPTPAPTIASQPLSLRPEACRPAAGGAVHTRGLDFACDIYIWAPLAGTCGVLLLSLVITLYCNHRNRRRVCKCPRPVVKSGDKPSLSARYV
Assay method text: flow cytometry, human CD8+ T cells, 0.2 uM FN3
The answer consists of two parts: a number and, after it, its unit.

In plain terms, P283BR9P1363_C8 (designed binder, FN3 domain) LPAPKNLVVSRVTEDSARLSWAKTSDLHPLFDSFLIQYQESEKVGEAIVLTVPGSERSYDLTGLKPGTEYTVSIYGVDVKWEGNRPVASNPLSAIFTT has a documented Human T-cell Binding 0.2 uM (MFI) of 3740 MFI

---
In plain terms, P282DR9P1359_C11 (designed binder, FN3 domain) LPAPKNLVVSRVTEDSARLSWTAPDAAFDSFKIAYPEFPPPGEAIVLTVPGSERSYDLTGLKPGTEYYVIIIGVKGGTDSWPLSAIFTT has a documented Human T-cell Binding 0.2 uM (MFI) of 1290 MFI
